system-tested: T1, human TREM2 (human, UniProt Q9NZC2 19-174, limits assumed)
T1 construct: also called triggering receptor expressed on myeloid cells 2
T1 sequence: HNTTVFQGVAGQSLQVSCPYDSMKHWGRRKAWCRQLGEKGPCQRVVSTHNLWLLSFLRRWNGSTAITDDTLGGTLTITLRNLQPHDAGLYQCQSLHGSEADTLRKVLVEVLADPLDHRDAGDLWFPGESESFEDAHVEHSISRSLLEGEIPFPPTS
measurement-protocol: 2nd screen, 10 nM
Please respond with reported Binding Signal for every item in the list.

Quick note, Binding Signal for V14 (antibody, V domains shown, also called 6E7 variant V14) VH: EVQLVQSGAEVKKPGESLKISCKGSGYSFGSYWIAWVRQMPGKGLEWMGIIYPGDQDTRYSPSFQGQVTISADKSISTAYLQWSSLKASDTAMYFCARGRTFYYDSSDYFDYWGQGTLVTVSS VL: DIQMTQSPSSVSASVGDRVTITCRASQGISSWLAWYQQKPGKAPKLLIYAASRLQNGVPSRFSGSGSGTDFTLTISSLQPEDFATYFCQQADSFPRTFGQGTKLEIK landed at 4.64 fold over 6E7 parental antibody

Given item V17 (antibody, V domains shown, also called 6E7 variant V17) VH: EVQLVQSGAEVKKPGESLKISCKGSGYSFGSYWIAWVRQMPGKGLEWMGIIYPGDSDTRYSPSFQGQVTISADKSISTAYLQWSSLKASDTAMYFCARSRTFYYDSSDYFDYWGQGTLVTVSS VL: DIQMTQSPSSVSASVGDRVTITCRASQGISSWLAWYQQKPGKAPKLLIYAASSRQNGVPSRFSGSGSGTDFTLTISSLQPEDFATYFCQQADSSPRTFGQGTKLEIK , the value recorded as its Binding Signal is 5.51 fold over 6E7 parental antibody

Documented Binding Signal of V49 (antibody, V domains shown, also called 6E7 variant V49; LV-106/HV-106) VH: EVQLVQSGAEVKKPGESLKISCKGSGYSFNSYWIAWVRQMPGKGLEWMGTIYPGDSDTRLSPSFQGQVTISADKSISTAYLQWSSLKASDTAMYFCARSRTFYYDSSDYFDYWGQGTLVTVSS VL: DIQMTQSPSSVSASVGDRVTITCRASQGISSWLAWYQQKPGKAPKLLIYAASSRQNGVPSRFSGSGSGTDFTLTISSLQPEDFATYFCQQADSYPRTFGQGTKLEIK : 6.58 fold over 6E7 parental antibody

Hello, the source for this data is patent US20250326839A1, in case you need it.
